Data provenance: PubChem BioAssay (NCATS)

# experiment.description: Quantitative High-Throughput drug screen in 47 multiple myeloma cell lines against the NCATS MIPE library collection: UTMC2_PLB cell viability assay (AID 1919868); further: nearly all actives have a fitted effect of over 55% in size
# experimental.context: CellTiter-Glo ATP luminescence, 48 h
Results filed as inconclusive are left out. Active and inactive are the calls of the source. The call rests on the fitted dose curve; in most records, active means well fitted cell-killing curve with a large enough effect; inconclusive means small, poorly fitted or top-dose-only effect, or effect the other way; inactive means no such curve, though single readings can be large or run the other way.
Select the matching outcome among active, inactive

| molecule | category |
| --- | --- |
| CC(C)(C)c1cc(C(=O)O)c(NC(=O)Nc2ccc3[nH]ncc3c2)s1 | inactive |
| O=C(NC1CCOCC1)c1ccc(-c2cc(-c3cn[nH]c3-c3ccccn3)ccn2)cc1 | inactive |
| OC[C@H]1O[C@@H](Oc2cc(O)cc(C=Cc3ccc(O)cc3)c2)[C@H](O)[C@@H](O)[C@H]1O | inactive |
| O=C(O)c1ccccc1C(=O)Nc1ccc(-c2ccccc2)cc1 | inactive |
| CCNc1cc(NC2CCC(O)CC2)nc(Nc2ccc3c(ccn3Cc3ccccc3)c2)n1 (stereo not drawn) | active |
| CNC1CCC(N(Cc2cccc(-c3ccncc3)c2)C(=O)c2sc3c(F)ccc(F)c3c2Cl)CC1 (stereo not drawn) | active |
| C=C1C(=O)OC2C=C(C)CCC=C(C)CCC12 (stereo not drawn) | inactive |
| CCOC(=O)C1=C(N)Oc2ccc(Br)cc2C1C(C#N)C(=O)OCC (stereo not drawn) | active |
| CO[C@H]1C=CO[C@@]2(C)Oc3c(C)c(O)c4c(O)c(c5c(c4c3C2=O)NC2(CCN(CC(C)C)CC2)N=5)=NC(=O)C(C)=CC=C[C@H](C)[C@H](O)[C@@H](C)[C@@H](O)[C@@H](C)[C@H](OC(C)=O)[C@H]1C | inactive |
| CC(C)C(=O)Nc1ncc(-c2cc(C(F)F)nn2-c2c(Cl)cccc2Cl)s1 | active |

Can you look up the reported call for "CC1(C)CCC2=C(O1)c1ccccc1C(=O)C2=O" for me? active

Check "O=c1cc(-c2ccc(O)cc2)oc2cc(O)cc(O)c12" too. inactive

====

# Test system: Zika virus NS2B-NS3 protease
# experiment.description: Primary screen GU AMC qHTS for Zika virus inhibitors (AID 1347154); further: nearly all actives have a fitted effect of over 70% in size
# experimental.context: Zika NS2B-NS3 unlinked protease, AMC fluorogenic substrate; series mostly up to 54.1 µM
Results filed as inconclusive are left out. Activity calls are given as the source filed them. The call rests on the fitted dose curve; in most records, active means well fitted inhibition curve with a large enough effect; inconclusive means small, poorly fitted or top-dose-only effect; inactive means flat fitted curve, though single readings scatter.
Select the matching outcome among active, inactive

| molecule | tested.system | category |
| --- | --- | --- |
| O=C(Nc1cccc(Br)c1)c1cccc(S(=O)(=O)N2CCCCCC2)c1 | Zika virus NS2B-NS3 protease | inactive |
| NCCS | Zika virus NS2B-NS3 protease | inactive |
| CC=C(C)C(=O)O[C@H]1C(C)=C[C@]23C(=O)[C@@H](C=C(CO)[C@@H](O)[C@]12O)[C@H]1[C@@H](C[C@H]3C)C1(C)C | Zika virus NS2B-NS3 protease | inactive |
| CC(C)(C)Cn1c(N)nc2ccc(-c3[nH]c(C(C)(C)C)nc3-c3ccc(F)cc3)nc21 | Zika virus NS2B-NS3 protease | active |
| Clc1ccc(-c2nc3sccn3c2C=NOCc2ccc(Cl)c(Cl)c2)cc1 | Zika virus NS2B-NS3 protease | inactive |
| CC(C(=O)O)c1ccc(-c2ccccc2)c(F)c1 (centres undefined) | Zika virus NS2B-NS3 protease | inactive |
| CC(C)(C)c1ccc(C(O)CCCN2CCC(C(O)(c3ccccc3)c3ccccc3)CC2)cc1 (centres undefined) | Zika virus NS2B-NS3 protease | inactive |
| CC[C@]1(O)C[C@@H]2CN(CCc3c([nH]c4ccccc34)[C@@](C(=O)OC)(c3cc4c(cc3OC)N(C)[C@H]3[C@@](O)(C(=O)OC)[C@H](OC(C)=O)[C@]5(CC)C=CCN6CC[C@]43[C@@H]65)C2)C1 | Zika virus NS2B-NS3 protease | inactive |

Can you look up the reported call for "CCC(CC)[C@H](NC(C)=O)[C@@H]1[C@H](O)[C@@H](C(=O)O)C[C@@H]1N=C(N)N" for me? inactive

Check "CCn1cc(C(=O)O)c(=O)c2ccc(C)nc21" too. inactive

Check "CCN1CCC[C@H]1CNC(=O)c1cc(S(N)(=O)=O)ccc1OC" too. inactive

Check "NC(=O)c1ccc2nc(-c3ccc(Oc4ccc(Cl)cc4)cc3)[nH]c2c1" too. active

Check "C[C@]12CC[C@@H]3c4ccc(O)cc4CC[C@H]3[C@H]1C[C@@H](O)[C@H]2O" too. inactive

Check "C[C@H]1[C@H](NC(=O)C(=NOC(C)(C)C(=O)O)c2csc(N)n2)C(=O)N1S(=O)(=O)O" too. inactive

Check "CC(=O)N(C)C1(c2ccccc2)CCN(CCC[C@]2(c3ccc(Cl)c(Cl)c3)CCCN(C(=O)c3ccccc3)C2)CC1" too. inactive

Check "CC1(C)CCC[C@@]2(C)[C@@H]1CC[C@@]1(C)OC(=O)C[C@H]21" too. inactive

====

# tested.system: Cytochrome P450 1A2 (Homo sapiens)
# experiment.description: p450-cyp1a2 (AID 410)
# experimental.context: recombinant CYP1A2, luciferin-ME demethylation, luminescence; series mostly up to 57 µM
Records with an inconclusive call do not appear. Activity calls are given as the source filed them. Calls follow the shape of the full dose curve.
Select the matching outcome among active, inactive

| test.smiles | category |
| --- | --- |
| O=c1c(-c2ccc(O)cc2)coc2cc(O)ccc12 | active |
| CC(C)[C@H](CO)Nc1nc(Nc2ccc(C(=O)O)c(Cl)c2)c2ncn(C(C)C)c2n1 | inactive |
| c1cc(-c2sc(-c3ccncc3)c(-c3ccncc3)c2-c2ccncc2)ccn1 | active |
| C[N+](C)(C)CCCCCC[N+](C)(C)C | inactive |
| O=C1NCC2(CCN(CCc3ccccc3)CC2)O1 | inactive |
| CC1(C)CCC2=C(O1)c1ccccc1C(=O)C2=O | active |

Can you look up the reported call for "COc1ccc(-c2coc3cc(O)cc(O)c3c2=O)cc1" for me? active

Check "NCCS" too. inactive

Check "CCN1CCC[C@H]1CNC(=O)c1cc(S(N)(=O)=O)ccc1OC" too. inactive

Check "CCN(CC)CCOC(=O)c1ccc(N)cc1" too. inactive

Check "CCCCCCCCCCCC1=C(O)C(=O)C=C(O)C1=O" too. inactive

====

# experiment.description: Quantitative High-Throughput drug screen in 47 multiple myeloma cell lines against the NCATS MIPE library collection: KMS28PE_JCRB cell viability assay (AID 1918983); further: nearly all actives have a fitted effect of over 35% in size
# experimental.context: KMS28PE multiple myeloma viability, CellTiter-Glo ATP, 48 h; series mostly up to 45.8 µM
Results filed as inconclusive are left out. Calls of active or inactive are those of the source. The call rests on the fitted dose curve; in most records, active means well fitted cell-killing curve with a large enough effect; inconclusive means small, poorly fitted or top-dose-only effect, or effect the other way; inactive means no such curve, though single readings can be large or run the other way.
Select the matching outcome among active, inactive

Solved cases (10 shown):
| compound | category |
| --- | --- |
| Cc1nnc(C(C)C)n1C1C[C@H]2CC[C@@H](C1)N2CC[C@H](NC(=O)C1CCC(F)(F)CC1)c1ccccc1 (stereo partly specified) | inactive |
| Clc1ccc(C(c2ccc(Cl)cc2)n2cc[n+](CC(OCc3ccc(Cl)cc3Cl)c3ccc(Cl)cc3Cl)c2)cc1 (stereo unspecified) | active |
| CCC(CC)[C@H](NC(C)=O)[C@@H]1[C@H](O)[C@@H](C(=O)O)C[C@@H]1N=C(N)N | inactive |
| CNC(=O)c1ccc2cc(C3(O)CCn4cncc43)ccc2c1 (stereo unspecified) | inactive |
| COc1ccc2c3c1OC1C[C@@H](O)C=C[C@@]31CCN(C)C2 (stereo partly specified) | inactive |
| O=C1NC(=O)C(=Cc2ccc3nccnc3c2)S1 | active |
| O=c1c(-c2ccc(O)cc2)coc2cc(O[C@@H]3O[C@H](CO)[C@H](O)[C@H](O)[C@H]3O)ccc12 | inactive |
| O=C1c2c(O)cc(O)cc2O[C@H](c2cc(O)c(O)c(O)c2)[C@H]1O | active |
| CC1(C)CCC(CN2CCN(c3ccc(C(=O)NS(=O)(=O)c4ccc(NCC5CCOCC5)c([N+](=O)[O-])c4)c(Oc4cnc5[nH]ccc5c4)c3)CC2)=C(c2ccc(Cl)cc2)C1 | active |
| c1ccc2c(Cc3c[nH]c4ccccc34)c[nH]c2c1 | active |

Can you look up the reported call for "CC[C@@]1(O)C[C@H](O[C@H]2C[C@H](N(C)C)[C@H](O[C@H]3C[C@H](O)[C@H](O[C@H]4CCC(=O)[C@H](C)O4)[C@H](C)O3)[C@H](C)O2)c2c(cc3c(c2O)C(=O)c2c(O)cccc2C3=O)[C@@H]1C(=O)OC" for me? active

====

# experiment.description: qHTS of pediatric cancer cell lines to identify multiple opportunities for drug repurposing: Primary screen for NB1643 cells (AID 1347099); further: nearly all actives have a fitted effect of over 50% in size
# experimental.context: NB1643 neuroblastoma viability, CellTiter-Glo luminescence, 48 h; series mostly up to 46 µM
Results filed as inconclusive are left out. Activity calls are given as the source filed them. Calls come from the whole dose curve; as a rule, active = well fitted cell-killing curve with a large enough effect; inconclusive = small, poorly fitted or top-dose-only effect; inactive = no such curve, though single readings can be large or run the other way.
Select the matching outcome among 1 (yes) for active, 0 (no) for inactive

Solved cases (7 shown):
| compound | category |
| --- | --- |
| CN(C)C1CCN(C(=O)c2ccc(NC(=O)Nc3nc(N4CCOCC4)nc(N4CCOCC4)n3)cc2)CC1 | 1 (yes) |
| COc1ccc(-c2oc3c(CC=C(C)C)c(OC4O[C@H](CO)[C@@H](O)[C@H](O)[C@@H]4O)cc(O)c3c(=O)c2OC2O[C@@H](C)[C@H](O)[C@@H](O)[C@@H]2O)cc1 (stereo partly drawn) | 1 (yes) |
| Clc1ccc(C(c2ccc(Cl)cc2)n2cc[n+](CC(OCc3ccc(Cl)cc3Cl)c3ccc(Cl)cc3Cl)c2)cc1 (stereo not drawn) | 1 (yes) |
| NC(N)=Nc1nc(CSCC/C(N)=N/S(N)(=O)=O)cs1 | 0 (no) |
| CO[C@@H](C(=O)N1Cc2[nH]nc(NC(=O)c3ccc(N4CCN(C)CC4)cc3)c2C1)c1ccccc1 | 1 (yes) |
| CC1(C)S[C@H]2[C@H](NC(=O)[C@@H](N)c3ccc(O)cc3)C(=O)N2[C@@H]1C(=O)O | 1 (yes) |
| O=C(O)c1ccccc1C(=O)Nc1ccc(-c2ccccc2)cc1 | 0 (no) |

Now let's try a different one.
Can you look up the reported call for "C[C@@H](O)[C@H]1C(=O)N2C(C(=O)O)=C(S[C@@H]3CN[C@H](C(=O)N(C)C)C3)[C@H](C)[C@H]12" for me? 0 (no)
